Assay: MTT cell viability assay, non-tumoral Vero cells
Conditions: African green monkey, Vero cells (African green monkey kidney, non-tumoral), Cytotoxic activity IC50, Vero, MTT, 48 h incubation; mean ± SD of three independent experiments
quantity: IC50 at 48 h (µM)

[[record]]
compound = "CC1=C(CO)C(=O)OC(C(C)C2CCC3C4CC(O)C5(C=O)CCC(=O)C5(C)C4CCC23C)C1 (stereo not drawn)"
unit_abbreviation = "µM"
limit_qualifier = ">"
assay_value = 40

[[record]]
compound = "CC1=C(CO)C(=O)OC(C(C)C2CCC3C4CC(O)C56C=CC(OO5)C(=O)C6(C)C4CCC23C)C1 (stereo not drawn)"
unit_abbreviation = "µM"
limit_qualifier = "="
assay_value = 16

[[record]]
compound = "CC1=C(CO)C(=O)OC(C(C)C2=CCC3C4CC(O)C56C=CC(OO5)C(=O)C6(C)C4CCC23C)C1 (stereo not drawn)"
unit_abbreviation = "µM"
limit_qualifier = "="
assay_value = 31.6

[[record]]
compound = "CC1=C(CO)C(=O)O[C@@H]([C@@H](C)[C@H]2CC[C@H]3[C@@H]4C[C@H]5O[C@]56[C@@H](O)C=CC(=O)[C@]6(C)[C@H]4CC[C@]23C)C1"
unit_abbreviation = "µM"
limit_qualifier = "="
assay_value = 6.4

[[record]]
compound = "COc1cc([C@@H]2c3cc4c(cc3[C@@H](O[C@@H]3O[C@@H]5CO[C@@H](C)O[C@H]5[C@H](O)[C@H]3O)[C@H]3COC(=O)[C@H]23)OCO4)cc(OC)c1O [Etoposide, reference compound]"
unit_abbreviation = "µM"
limit_qualifier = "="
assay_value = 19.5

[[record]]
compound = "CC1=C(CO)C(=O)O[C@@H]([C@@H](C)[C@H]2CC[C@H]3[C@@H]4C[C@H]5O[C@]56[C@@H](O)[C@@H](O)CC(=O)[C@]6(C)[C@H]4CC[C@]23C)C1"
unit_abbreviation = "µM"
limit_qualifier = ">"
assay_value = 40


----------
System: HL-60 (human promyelocytic leukemia cell line)
Experiment: MTT cell viability (antiproliferative) assay, HL-60
Details: read-out: Cytotoxic activity IC50, HL 60; MTT, 48 h incubation; mean ± SD of three independent experiments; listed as WA
quantity: IC50

[[record]]
query_smiles = "CC1=C(CO)C(=O)O[C@@H]([C@@H](C)[C@H]2CC[C@H]3[C@@H]4C[C@H]5O[C@]56[C@@H](O)C=CC(=O)[C@]6(C)[C@H]4CC[C@]23C)C1"
assay_value = "≤ 500 nM"


----------
Recorded measurements of SI (selectivity index), one per entry
Tested on: HL-60 (human promyelocytic leukemia cell line)
Assay: MTT cell viability (antiproliferative) assay, HL-60
Details: Vero (IC50) on HL-60 (IC50)
quantity: SI (selectivity index)

[[record]]
compound = "CC1=C(CO)C(=O)OC(C(C)=C2C(O)CC3C4CC5OC56C(O)C=CC(=O)C6(C)C4CCC23C)C1 (stereo not drawn)"
study_target = "HL-60 (human promyelocytic leukemia cell line)"
quantity = "SI (selectivity index)"
limit_qualifier = "="
assay_value = 4.2

[[record]]
compound = "CC(=O)OCC1=C(C)CC(C(C)C2CCC3C4CC5OC56C(O)C(O)CC(=O)C6(C)C4CCC23C)OC1=O (stereo not drawn)"
study_target = "HL-60 (human promyelocytic leukemia cell line)"
quantity = "SI (selectivity index)"
limit_qualifier = "="
assay_value = 7.9

[[record]]
compound = "CC1=C(CO)C(=O)O[C@@H]([C@@H](C)[C@H]2CC[C@H]3[C@@H]4C[C@H]5O[C@]56[C@@H](O)C=CC(=O)[C@]6(C)[C@H]4CC[C@]23C)C1"
study_target = "HL-60 (human promyelocytic leukemia cell line)"
quantity = "SI (selectivity index)"
limit_qualifier = "="
assay_value = 33.0

[[record]]
compound = "CC1=C(CO)C(=O)OC(C(C)C2CCC3C4CC(O)C5(O)C(O)C=CC(=O)C5(C)C4CCC23C)C1 (stereo not drawn) [Compound 26, 2,3-dehydrosomnifericin]"
study_target = "HL-60 (human promyelocytic leukemia cell line)"
quantity = "SI (selectivity index)"
limit_qualifier = ">"
assay_value = 3.0

[[record]]
compound = "CC1=C(C)C(=O)OC(C(C)C2=CCC3C4CC=C5C(O)C=CC(=O)C5(C)C4CCC23C)C1 (stereo not drawn)"
study_target = "HL-60 (human promyelocytic leukemia cell line)"
quantity = "SI (selectivity index)"
limit_qualifier = "="
assay_value = 1.6

[[record]]
compound = "CC1=C(CO)C(=O)OC(C(C)C2(O)CCC3C4CC=C5C(O)C=CC(=O)C5(C)C4CCC32C)C1 (stereo not drawn) [Compound 12]"
study_target = "HL-60 (human promyelocytic leukemia cell line)"
quantity = "SI (selectivity index)"
limit_qualifier = ">"
assay_value = 6.1

